system: Cortical neurone; assay: Neuroprotective activity against OGD-induced neurotoxicity in Sprague-Dawley rat cortical neuron assessed as cell survival rate at 1 uM pretreated for 24 hrs followed by incubation in oxygen and glucose deprivation medium for 2 hrs followed by exposure to reoxygenation by re-incubating in normoxia condition for 24 hrs by MTT assay (reference value: 58.5 to 61.2 %); format: functional
Here the recorded Activity is given for each entry.

Some solved cases for reference:
COC(=O)C1=CN(C(C)C)C(=O)[C@@H]2C(CN3CCN(Cc4ccc(C(F)(F)F)cc4)CC3)=CC[C@H]12.Cl.Cl = 71.6%
COC(=O)C1=CN(C)C(=O)[C@@H]2C(CN3CCN(Cc4cccc(C)c4)CC3)=CC[C@H]12.Cl.Cl = 66.7%
COc1cc2c(cc1OC)C(=O)C(CC1CCN(Cc3ccccc3)CC1)C2 (centres undefined) = 72.3%

# ---- query compound ----
Dear colleague, please send me the reported Activity for `COC(=O)C1=CN(C)C(=O)[C@@H]2C(CN3CCN(Cc4ccc(C)cc4)CC3)=CC[C@H]12.Cl.Cl` when you can. 66.9%
